Reference source: patent US20260176285A1

assay: Dynamic solubility in water, SGF, FaSSIF and FeSSIF; type: physicochemical; settings: 37 °C, pH 6.5, fassif, thermodynamic from solid
reported_metric: solubility at 1 h (µg/mL)
Answers are plain numbers, in µg/mL.

Ask: For the compound O=C(Nc1ccc(F)cc1)C1(C(=O)Nc2ccc(Oc3ccnc4cc(OCCCN5CCOCC5)c5c(c34)OCCO5)c(F)c2)CC1 [Free state] , report solubility at 1 h.
Result: 1.8

* * *

test system: human lung cancer cells EBC-1; assay: Efficacy in nude mouse tumor-bearing model of human lung cancer cells EBC-1; assay type: in vivo, Balb/c nude mouse; settings: 7.5 mg/kg oral once a day, day 14
reported_metric: T/C (relative tumor proliferation rate) (%)
Give bare numbers, in %.

Example results:
{"columns": ["molecule", "target_desc", "unit_of_measurement", "T/C (relative tumor proliferation rate)"],
 "data": [
  ["O=C(Nc1ccc(F)cc1)C1(C(=O)Nc2ccc(Oc3ccnc4cc(OCCCN5CCOCC5)c5c(c34)OCCO5)c(F)c2)CC1 [Example 2]", "human lung cancer cells EBC-1", "%", 40.3],
  ["O=C(Nc1ccc(F)cc1)C1(C(=O)Nc2ccc(Oc3ccnc4cc(OCCCN5CCOCC5)c5c(c34)OCCO5)c(F)c2)CC1 [Free state]", "human lung cancer cells EBC-1", "%", 69.3],
  ["O=C(Nc1ccc(F)cc1)C1(C(=O)Nc2ccc(Oc3ccnc4cc(OCCCN5CCOCC5)c5c(c34)OCCO5)c(F)c2)CC1 [Example 1]", "human lung cancer cells EBC-1", "%", 46.9]
]}

# next molecule below
Ask: For the molecule O=C(Nc1ccc(F)cc1)C1(C(=O)Nc2ccc(Oc3ccnc4cc(OCCCN5CCOCC5)c5c(c34)OCCO5)c(F)c2)CC1 [Example 5] , report T/C (relative tumor proliferation rate).
Result: 68.2
